# Test system: A549 cells
# METHOD SUMMARY: Growth inhibition of siRNA-transfected A549 cells, SYBR Green I DNA content
# Assay type: cell-based, human
# RECORDED CONDITIONS: A549 cells, 10 nM siRNA, DNA content 96 hours after transfection, transporter gene targets
# Procedure: A549 cells (human lung cancer cell line; ATCC No. CCL-185), SK-MeI-5 cells (human melanoma cell line; ATCC No. HTB-70), MCF-7 cells (human adenocarcinoma cell line; ATCC No. HTB-22), HCT-116 cells (colorectal carcinoma; ATCC CCL-247) and HCT-116 p53 null cells (derived from ATCC No. CCL-247; Bunz et al., Science 282:1497-1501, 1998) were cultured in RPMI 1640 medium with 10% v/v heat-inactivated fetal calf serum (FCS). […] siRNA-mediated RNAi was also determined on a panel of different cell lines. […]
MEASURE: Growth Inhibition in A549 cells by 10 nM siRNA

| SUBSTANCE | ASSAYED SYSTEM | VALUE REPORTED |
| --- | --- | --- |
| SEQ ID NO: 4959: siRNA targeting ATP6V1E1 (chain 1 TGGTCAATTTGGACATCAACATCGT; chain 2 UGGUCAAUUUGGACAUCAACAUCGU; chemistry not given here; one strand in two spellings) | A549 cells | − (no growth inhibition) |
| SEQ ID NO: 4942: siRNA targeting ATP2B2 (PMCA2) (chain 1 TTCCAGGTCGGTGTCATCAATGAGG; chain 2 UUCCAGGUCGGUGUCAUCAAUGAGG; chemistry not given here; one strand in two spellings) | A549 cells | − (no growth inhibition) |
| SEQ ID NO: 4966: siRNA targeting ATP7A (chain 1 ATAGCTCCCAATTTGAGGTACTTGG; chain 2 AUAGCUCCCAAUUUGAGGUACUUGG; chemistry not given here; one strand in two spellings) | A549 cells | − (no growth inhibition) |
| SEQ ID NO: 4891: siRNA targeting SLC1A5 (ASCT2) (chain 1 TCTACATTGAGGACGGTACAGGACC; chain 2 UCUACAUUGAGGACGGUACAGGACC; Antisense strand given in DNA and RNA notation, chemistry not given here; one strand in two spellings) | A549 cells | − (no growth inhibition) |
